System: NCI-H929 cells
Assay: Cell viability assay (NCI-H929 cells), CCK-8
Assay type: cell-based
Settings: Homo sapiens, NCI-H929, 24 h, 5% FBS
Measured pIC50, listed per entry for reference.
Friendly reminder that pIC50 comes from taking -log10 of the concentration in mol/L.

The following compounds have reported results that may help.
{"columns": ["compound", "pIC50"],
 "data": [
  ["CO[C@@]1(CN2CCC(N3CCOCC3)CC2)C2=C[C@@H](C2)[C@H](C)[C@@H](C)S(=O)(=O)NC(=O)c2ccc3c(c2)N(C[C@@H]2CC[C@H]21)C[C@@]1(CCCc2c1ccc(Cl)c2F)CO3 [compound 37]", 7.92],
  ["CO[C@H]1C2CC(C2)[C@H](C)N(C)S(=O)(=O)NC(=O)c2ccc3c(c2)N(C[C@@H]2CC[C@H]21)C[C@@]1(CCCc2cc(Cl)ccc21)CO3 [Cpd. No. 28]", 5.89],
  ["CO[C@H]1C2=CC(C)(C2)[C@H](C)CS(=O)(=O)NC(=O)c2ccc3c(c2)N(C[C@@H]2CC[C@H]21)C[C@@]1(CCCc2cc(Cl)ccc21)CO3 (mixture of isomers) [13 (mixture)]", 7.05]
]}

Proceed to the following item.
Looking up C[C@@H]1[C@@H](C)S(=O)(=O)NC(=O)c2ccc3c(c2)N(C[C@@H]2CC[C@H]2[C@@H](OCCN2CCS(=O)(=O)CC2)C2=C[C@H]1C2)C[C@@]1(CCCc2c1ccc(Cl)c2F)CO3 [compound 88] , I found its pIC50 recorded as 7.40

* * *

Values of pIC50 reported for Mcl-1 protein (residues 171-323) (Homo sapiens, UniProt Q07820) appear below.
Recall that pIC50 is obtained by taking minus log10 of the concentration measured in molar.

Record excerpt, results attached:
{"columns": ["compound", "pIC50"],
 "data": [
  ["CO[C@H]1C2=C[C@@H](C2)[C@H](C)N(C[C@@H]2CCCO2)S(=O)(=O)NC(=O)c2ccc3c(c2)N(C[C@@H]2CC[C@H]21)C[C@@]1(CCCc2cc(Cl)ccc21)CO3 (single isomer, unassigned) [30 (isomer 3)]", 7.85],
  ["CO[C@H]1C2=CC(C2)[C@H](C)CS(=O)(=O)NC(=O)c2ccc3c(c2)N(C[C@@H]2CC[C@H]21)C[C@@]1(CCCc2cc(Cl)ccc21)CO3 (single isomer, unassigned) [Cpd. No. 14 (Isomer 2)]", 7.96]
]}

// switching to the query compound
Reported Mcl-1 protein (residues 171-323) (Homo sapiens, UniProt Q07820) pIC50 for item CO[C@@]1(CN2CCN(S(C)(=O)=O)CC2)C2=C[C@@H](C2)[C@H](C)[C@@H](C)S(=O)(=O)NC(=O)c2ccc3c(c2)N(C[C@@H]2CC[C@H]21)C[C@@]1(CCCc2c1ccc(Cl)c2F)CO3 was 7.82

* * *

Test system: NCI-H929 cells
Test: Cell viability assay (NCI-H929 cells), CCK-8
Format: cell-based
Settings: Homo sapiens, NCI-H929, 24 h, 5% FBS
Attribute: log10(IC50)
For clarity, the numbers are log10 values of IC50 expressed in nM.

See these solved cases before continuing.
{"columns": ["compound", "recorded.value"],
 "data": [
  ["CO[C@H]1C2=CC3(C2)CN(C3)S(=O)(=O)NC(=O)c2ccc3c(c2)N(C[C@@H]2CC[C@H]21)C[C@@]1(CCCc2cc(Cl)ccc21)CO3", 3.99],
  ["CO[C@H]1C2=CC(C2)[C@H](C)[C@@H](C)S(=O)(=O)NC(=O)c2ccc3c(c2)N(C[C@@H]2CC[C@H]21)C[C@@]1(CCCc2c1cc(F)c(Cl)c2F)CO3 (single isomer, unassigned)", 2.83]
]}

log10(IC50) reading for C[C@@H]1[C@@H](C)S(=O)(=O)NC(=O)c2ccc3c(c2)N(C[C@@H]2CC[C@H]2[C@@H](OCCN(C)S(C)(=O)=O)C2=C[C@H]1C2)C[C@@]1(CCCc2c1ccc(Cl)c2F)CO3 : 1.76

Note to self: log10(IC50) recorded for C[C@@H]1[C@@H](C)S(=O)(=O)NC(=O)c2ccc3c(c2)N(C[C@@H]2CC[C@H]2[C@@H](OCCN2CCCS2(=O)=O)C2=C[C@H]1C2)C[C@@]1(CCCc2c1ccc(Cl)c2F)CO3 was 1.77

# log10(IC50) (compound: CNCCO[C@H]1C2=C[C@@H](C2)[C@H](C)[C@@H](C)S(=O)(=O)NC(=O)c2ccc3c(c2)N(C[C@@H]2CC[C@H]21)C[C@@]1(CCCc2c1ccc(Cl)c2F)CO3 ) is 1.82
